TARGET_DESC: Glucose-dependent insulinotropic receptor (Homo sapiens) (UniProt Q8TDV5)
Sequence (Q8TDV5 whole entry): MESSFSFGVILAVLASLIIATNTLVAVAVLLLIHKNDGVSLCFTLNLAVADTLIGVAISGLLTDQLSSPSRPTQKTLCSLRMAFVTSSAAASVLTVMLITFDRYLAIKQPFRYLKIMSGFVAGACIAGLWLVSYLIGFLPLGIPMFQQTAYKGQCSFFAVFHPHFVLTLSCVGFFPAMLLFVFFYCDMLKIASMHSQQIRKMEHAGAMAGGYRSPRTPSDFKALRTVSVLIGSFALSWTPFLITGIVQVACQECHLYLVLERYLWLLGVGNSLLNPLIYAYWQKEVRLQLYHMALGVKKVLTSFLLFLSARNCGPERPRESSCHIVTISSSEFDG
TEST_SUMMARY: Agonist activity at human GPR119 expressed in HEK293 cells assessed as cAMP accumulation after 30 mins relative to isopropyl 4-(1-(4-(methylsulfonyl)phenyl)-1H-pyrazolo[3,4-d]pyrimidin-4-yloxy)piperidine-1-carboxylate
Format: functional, cell-based
OBSERVATION_TYPE: Efficacy
Param answer (str): number followed by unit.

**Q:** For the compound "Cc1cc2c(c(Sc3cccc(NS(=O)(=O)c4ccc(Cl)cc4)c3)n1)C(=O)N(C(C)C)C2=O" , what Efficacy is on record?
**A:** 76%

**Q:** Name the recorded Efficacy for "CCN1C(=O)c2cc(C)nc(Oc3cccc(NS(=O)(=O)c4ccc(Cl)cc4)c3)c2C1=O" .
**A:** 120%

**Q:** What value of Efficacy has been recorded for this entry: "Cc1cc2c(c(Oc3cccc(NS(=O)(=O)c4ccc(Cl)cc4)c3)n1)C(=O)N(C(C)C)C2=O"
**A:** 99%

**Q:** Param item = "O=C1c2cc(C3CC3)nc(Oc3cccc(NS(=O)(=O)c4ccc(Cl)cc4)c3)c2C(=O)N1C1CC1" ; retrieve measured Efficacy.
**A:** 99%

**Q:** // returns reported Efficacy for input "Cc1cc2c(c(Oc3cccc(NS(=O)(=O)c4ccc(Cl)cc4)c3)n1)C(=O)N(C1CCCC1)C2=O"
**A:** 95%

**Q:** Using the record for "Cc1cc2c(c(Nc3ccc(C)c(NS(=O)(=O)c4ccc(Cl)cc4)c3)n1)C(=O)N(C(C)C)C2=O" , report its Efficacy.
**A:** 81%

**Q:** Which Efficacy value belongs to "Cc1cc2c(c(Oc3cccc(NS(=O)(=O)c4ccc(Cl)cc4)c3)n1)C(=O)N(c1ccccc1)C2=O" ?
**A:** 102%

**Q:** Requested field: Efficacy. Item: "Cc1cc2c(c(Sc3ccc(C)c(NS(=O)(=O)c4ccc(Cl)cc4)c3)n1)C(=O)N(C(C)C)C2=O"
**A:** 85%
